tested on: SF-295 CNS; test: NCI tumour cell line growth inhibition, 48 h
This listing pairs molecules with measured TGI.

CC(C)=CCOc1cc(NC(=S)c2ccoc2C)ccc1Cl | > 100 µM
CCCC(O)[C@@H](O)c1ccc2c(c1O)C(=O)c1c(OC)cccc1C2=O (some centres not stated) | > 100 µM
COc1ccc2c(c1)CCC1C2CCC2(C)C1CCC2(O)CNC(=O)CCCCC1CCSS1 (configuration not stated) | 79.6 µM

Query block: Param readout= TGI; system= SF-295 CNS; entry= "CCc1c(C)[nH]c(/C=C2\N=C(c3ccc[nH]3)C=C2OC)c1C" ; returns value.
Result block: 3.03 µM

Query block: Also, "CCOC(=O)/C(C)=C\[C@@]1(C)O[C@@H](C)[C@@](C)(OC(C)=O)[C@@H]1OC(C)=O" please.
Result block: > 100 µM

Query block: Also "NCCCNCCCNCCCN" ?
Result block: > 100 µM

Query block: Next molecule: "CSc1nnc(CCSc2ccnc3c(C(F)(F)F)cccc23)o1"
Result block: > 100 µM

----------
test system: SN12C renal; experiment: NCI tumour cell line growth inhibition, 48 h
outcome_measure: log10(TGI) (log10 of the value in µM)
Hey, these are logged values: log10 of TGI, µM being the unit before logging.

These recorded examples may help you get a feel for the data.
CCc1c(C)[nH]c(/C=C2\N=C(c3ccc[nH]3)C=C2OC)c1C | 1.19
N#CC(C#N)=CN1CCN(C(=O)c2ccco2)C1=S | 1.22
N#CC1(C#N)C2CCCCC23OC(=N)C1(C#N)C(c1ccco1)O3 (stereo not given) | 1.47
CC[C@H](Nc1nc(N)nc(C)c1C#N)c1nc2cccc(CN(C)c3ncc(C(=O)NO)cn3)c2c(=O)n1-c1ccccc1 | 0.78
Cc1nc2sc(CCl)nn2c(=O)c1Cl | 1.42

Query block: Quick one: log10(TGI) of CC1Oc2cc3c(-c4c(O)cc(O)c5c(O)c6c(cc45)OC(C)C(C)C6=O)c(O)cc(O)c3c(O)c2C(=O)C1C (stereo not given) ?
Result block: 0.05

Query block: Next compound: "Cc1c2ccncc2cc2c1sc1ccncc12"
Result block: 1.22

Query block: // repeat for C[C@@]12C=CC3C/C(=N\C(N)=S)C=C(CCCC4OCCO4)[C@]3(CC1)C2 (stereo not given in full) and report
Result block: 1.49

----------
In this section we review reported TGI values for a set of compounds.
system: ACHN renal; assay: NCI tumour cell line growth inhibition, 48 h
Where a SMILES comes first, the peptide text is derived from it. [ ]: non-standard residue; d: D form. Phe(F5) = N[CH](Cc1c(F)c(F)c(F)c(F)c1F)C(=O)O

Some compounds with known TGI results, for comparison:
CCOC(=O)CCC(NC(=O)Cc1ccc(Nc2nc3ccccc3nc2-c2ccccc2)cc1)C(=O)OCC (centres undefined) | > 100 µM
CCOC(=O)c1ccc(C(=O)OCC)n1-c1cc2cc(c1)CSCc1cc(cc(-n3c(C(=O)OCC)ccc3C(=O)OCC)c1)CSC2 | > 10 µM
COC(=O)C(CC(C)C)NC(=O)C(Cc1cnc[nH]1)NC(=O)CNC(=O)C(NC(=O)C(C)NC(=O)C(Cc1c[nH]c2ccccc12)NC(=O)C(CCC(=O)O)NC(=O)C(N)Cc1c(F)c(F)c(F)c(F)c1F)C(C)C (centres undefined) (H-[Phe(F5)]EWAVGHL-OMe; configuration not given here) | > 100 µM

Query block: What does the record list as TGI for "CC(C)(C(=O)NN)c1ccccc1" ?
Result block: > 100 µM
